These data points were gathered from the supplement of paper PMC10307832.

Tested on: NCI-H23
PROTOCOL_DETAILS: relative viability (nuclei count vs DMSO), 5 days (fraction); higher = more cells survive
CONDITION_PARAMETERS: first compound 0.08 µM
Listed here: items and their measured relative viability.
Kindly provide the number alone.

Observe how each entry below is paired with its result.
MOLECULE: Cc1cnc(-c2cnc(NCCNc3ccc(C#N)cn3)nc2-c2ccc(Cl)cc2Cl)[nH]1 + CC(=O)c1c(C)c2cnc(Nc3ccc(N4CCNCC4)cn3)nc2n(C2CCCC2)c1=O [Palbociclib] (partner 0.5 µM)
TEST_SYSTEM: NCI-H23
relative viability: 0.378
--
MOLECULE: O=c1[nH]c2ccccc2n1C1CCN(CCCC(c2ccc(F)cc2)c2ccc(F)cc2)CC1 [Pimozide] + COc1cc2c(Oc3ccc(NC(=O)C4(C(=O)Nc5ccc(F)cc5)CC4)cc3F)ccnc2cc1OCCCN1CCOCC1 [Foretinib] (partner 0.25 µM)
TEST_SYSTEM: NCI-H23
relative viability: 0.676
--
MOLECULE: Cc1cnc(-c2cnc(NCCNc3ccc(C#N)cn3)nc2-c2ccc(Cl)cc2Cl)[nH]1 + C[C@@H](Oc1cc(-c2cnn(C3CCNCC3)c2)cnc1N)c1c(Cl)ccc(F)c1Cl [Crizotinib] (partner 1 µM)
TEST_SYSTEM: NCI-H23
relative viability: 0.676

Please find the next molecule below.
Reported NCI-H23 relative viability for item O=c1[nH]c2ccccc2n1C1CCN(CCCC(c2ccc(F)cc2)c2ccc(F)cc2)CC1 [Pimozide] + CCNC(=O)c1noc(-c2cc(C(C)C)c(O)cc2O)c1-c1ccc(CN2CCOCC2)cc1 [Luminespib] (partner 0.01 µM) was 0.236
